system: Escherichia coli TOP10; assay: shrunken log2 fold change of peptide-encoding DNA abundance (4.5 h post-induction vs induction); higher = less antimicrobial activity (less host growth inhibition); conditions: time post-induction: 4.5 h; library: site-saturation at positions 5, 18, 19, 20
assay readout: shrunken log2 fold change
Reply with the value as a number alone.

Some entries whose results are on file:
construct sequence: RRIRGRPPRLPRPRPRPSHIPRP
shrunken log2 fold change: 0.0558

construct sequence: RRIRFRPPRLPRPRPRPRVPPRP
shrunken log2 fold change: 0.291

construct sequence: RRIRDRPPRLPRPRPRPWKEPRP
shrunken log2 fold change: -0.0075

Request: shrunken log2 fold change lookup needed for RRIRERPPRLPRPRPRPFWFPRP , thanks.
Result: -0.303

Request: Suppose we examine the sequence RRIRPRPPRLPRPRPRPVGSPRP ; what shrunken log2 fold change value has been reported?
Result: 0.261

Request: # get_value(readout='shrunken log2 fold change', item= RRIRTRPPRLPRPRPRPGEFPRP )
Result: -0.0751

Request: # input sequence: RRIRIRPPRLPRPRPRPAEAPRP ; wanted: its shrunken log2 fold change
Result: 0.0803

Request: Quick check: shrunken log2 fold change of RRIRIRPPRLPRPRPRPMYVPRP ?
Result: 0.00823

Request: shrunken log2 fold change lookup needed for RRIRSRPPRLPRPRPRPTLSPRP , thanks.
Result: 0.0887

====

Let's look at some sequences and their measured shrunken log2 fold change.
system: Escherichia coli TOP10; assay: shrunken log2 fold change of peptide-encoding DNA abundance (4.5 h post-induction vs induction); higher = less antimicrobial activity (less host growth inhibition); conditions: time post-induction: 4.5 h; library: site-saturation at positions 5, 18, 19, 20;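 note: peptides expressed intracellularly from a pBAD plasmid library in pooled LB shake-flask culture, induced with 0.3% L-arabinose, DNA abundance read by NGS, three biological replicates, DESeq2 with apeglm shrinkage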
Form field (numeric): enter value without unit.

Below are worked cases with known answers.
construct sequence: RRIRRRPPRLPRPRPRPKMRPRP
shrunken log2 fold change: 0.733
//
construct sequence: RRIRDRPPRLPRPRPRPDMRPRP
shrunken log2 fold change: 0.0382
//
construct sequence: RRIRPRPPRLPRPRPRPVYKPRP
shrunken log2 fold change: -0.199
//
construct sequence: RRIRDRPPRLPRPRPRPIRHPRP
shrunken log2 fold change: -0.0425
//
construct sequence: RRIRERPPRLPRPRPRPNEEPRP
shrunken log2 fold change: 0.00699

Request: Reported shrunken log2 fold change, sequence RRIRFRPPRLPRPRPRPYHIPRP : ____
Result: -0.081

Request: So what's the measured shrunken log2 fold change for this one? RRIRLRPPRLPRPRPRPPLAPRP
Result: 0.519

Request: Any idea what its shrunken log2 fold change is? The sequence is RRIRFRPPRLPRPRPRPVEMPRP
Result: -0.327

Request: I'd like to know its shrunken log2 fold change. The sequence in question is RRIRERPPRLPRPRPRPNCDPRP
Result: -0.261

Request: Given RRIRSRPPRLPRPRPRPLPNPRP , state its recorded shrunken log2 fold change.
Result: -0.215

Request: Field request: shrunken log2 fold change | item: RRIRCRPPRLPRPRPRPYKFPRP
Result: -0.279

Request: Consider the sequence RRIRYRPPRLPRPRPRPMDAPRP and give its measured shrunken log2 fold change.
Result: -0.00112

Request: Quick one: shrunken log2 fold change of RRIRRRPPRLPRPRPRPDAIPRP ?
Result: -0.0233

Request: State the recorded shrunken log2 fold change for this entry: RRIRERPPRLPRPRPRPGSRPRP
Result: -0.0607

Request: // returns reported shrunken log2 fold change for input RRIRTRPPRLPRPRPRPMYLPRP
Result: -0.518
